Data credit: ChEMBL document CHEMBL2429721

- Tested on: Aspergillus flavus
- ASSAY METHOD TEXT: Antifungal activity against Aspergillus flavus MTCC 3306 assessed as growth inhibition at 1000 ug/mL after 72 hrs by agar well plate method
- Assay type: functional
- EXPERIMENTAL PARAMETERS: MTCC 3306, 72 h, read-out: DIZ
METRIC: log10 zone of inhibition at 1000 µg/mL (log10 of the value in mm)

{"columns": ["COMPOUND", "log10 zone of inhibition at 1000 µg/mL"],
 "data": [
  ["COc1ccc(C2CC(=NOC(=O)c3cccc(O)c3)CC(c3ccc(OC)cc3)N2C)cc1 (centres undefined)", 0.00],
  ["COc1ccc(C2CC(=NOC(=O)c3ccccc3OC(C)=O)CC(c3ccc(OC)cc3)N2C)cc1 (centres undefined)", 0.30],
  ["COc1ccc(C(=O)ON=C2CC(c3ccc(OC)cc3)N(C)C(c3ccc(OC)cc3)C2)cc1 (centres undefined)", 0.70],
  ["COc1ccc(C2CC(=NOC(=O)c3ccc(Cl)cc3)CC(c3ccc(OC)cc3)N2C)cc1 (centres undefined)", 0.90],
  ["COc1ccc(C2CC(=NOC(=O)c3ccc([N+](=O)[O-])cc3)CC(c3ccc(OC)cc3)N2C)cc1 (centres undefined)", 0.48],
  ["COc1ccc(C2CC(=NOC(=O)c3cccc(Cl)c3)CC(c3ccc(OC)cc3)N2C)cc1 (centres undefined)", 0.85],
  ["OC(Cn1cncn1)(Cn1cncn1)c1ccc(F)cc1F", 1.11],
  ["COc1ccc(C2CC(=NOC(=O)c3ccc(F)cc3)CC(c3ccc(OC)cc3)N2C)cc1 (centres undefined)", 1.08],
  ["COc1ccc(C2CC(=NOC(=O)c3ccc(Br)cc3)CC(c3ccc(OC)cc3)N2C)cc1 (centres undefined)", 0.70]
]}

---

zone of inhibition at 1000 µg/mL listing for selected molecules.
- Tested on: Escherichia coli
- ASSAY METHOD TEXT: Antibacterial activity against Escherichia coli ATCC 25922 assessed as growth inhibition at 1000 ug/mL after 24 hrs by agar well plate method
- Type: functional
- EXPERIMENTAL PARAMETERS: ATCC 25922, 24 h, read-out: DIZ
METRIC: zone of inhibition at 1000 µg/mL (mm)

{"columns": ["MOLECULE", "TARGET ENTITY", "OBSERVED"],
 "data": [
  ["COc1ccc(C2CC(=NOC(=O)c3ccccc3)CC(c3ccc(OC)cc3)N2C)cc1 (stereo not given)", "Escherichia coli", 2],
  ["COc1ccc(C2CC(=NOC(=O)c3cccc(Cl)c3)CC(c3ccc(OC)cc3)N2C)cc1 (stereo not given)", "Escherichia coli", 12],
  ["COc1ccc(C2CC(=NOC(=O)c3ccc([N+](=O)[O-])cc3)CC(c3ccc(OC)cc3)N2C)cc1 (stereo not given)", "Escherichia coli", 7],
  ["COc1ccc(C2CC(=NOC(=O)c3ccc(Cl)cc3)CC(c3ccc(OC)cc3)N2C)cc1 (stereo not given)", "Escherichia coli", 16],
  ["COc1ccc(C2CC(=NOC(=O)c3ccccc3OC(C)=O)CC(c3ccc(OC)cc3)N2C)cc1 (stereo not given)", "Escherichia coli", 4]
]}

---

- System: Escherichia coli
- ASSAY METHOD TEXT: Antibacterial activity against Escherichia coli ATCC 25922 assessed as growth inhibition at 1000 ug/mL after 24 hrs by agar well plate method
- Format: functional
- EXPERIMENTAL PARAMETERS: ATCC 25922, 24 h, read-out: DIZ

{"columns": ["COMPOUND", "TARGET ENTITY", "UNITS OF MEASURE", "zone of inhibition at 1000 µg/mL"],
 "data": [
  ["COc1ccc(C2CC(=NOC(=O)c3ccc(C)cc3)CC(c3ccc(OC)cc3)N2C)cc1 (stereo not given)", "Escherichia coli", "mm", 3],
  ["CN[C@@H]1[C@H](O[C@H]2[C@H](O[C@H]3[C@H](O)[C@@H](O)[C@H](N=C(N)N)[C@@H](O)[C@@H]3N=C(N)N)O[C@@H](C)[C@]2(O)C=O)O[C@@H](CO)[C@H](O)[C@H]1O", "Escherichia coli", "mm", 16],
  ["COc1ccc(C2CC(=NOC(=O)c3cc(OC)c(OC)c(OC)c3)CC(c3ccc(OC)cc3)N2C)cc1 (stereo not given)", "Escherichia coli", "mm", 4],
  ["COc1ccc(C2CC(=NOC(=O)c3ccc(OC)cc3OC)CC(c3ccc(OC)cc3)N2C)cc1 (stereo not given)", "Escherichia coli", "mm", 5],
  ["COc1ccc(C(=O)ON=C2CC(c3ccc(OC)cc3)N(C)C(c3ccc(OC)cc3)C2)cc1 (stereo not given)", "Escherichia coli", "mm", 2]
]}
